Exercise: for every item that follows, state its recorded pIC50.
Test system: Z138 cells
protocol.notes: MTT cell proliferation assay, Z138 cells
Assay type: cell-based
experimental.parameters: Homo sapiens, Z-138, incubation approximately 64-72 hours
pIC50: −log10 of the molar value.

List reported pIC50 for each of these compounds:
1. CC(=O)c1ccc(-c2cnc(OCCNC(=O)/C=C/c3ccc(N)nc3)c(Cl)c2)s1 [Compound 331]
2. Nc1ccc(/C=C/C(=O)NCCOc2cc(Cl)cc(-c3ccc(C(=O)N4CC(F)(F)C4)cc3)c2)cn1 [Compound 332]
3. CC(=O)c1ccc(-c2cccc(OCCNC(=O)/C=C/c3cccnc3)c2Cl)s1 [Compound 302]
4. CC(=O)c1ccc(-c2ccc(OCCNC(=O)CCc3cccnc3)c(Cl)c2)s1 [Compound 306]

-- reply
["< 5.00", "> 7.00", "5.30 to 7.00", "< 5.00"]

List reported pIC50 for each of these compounds:
1. CC(=O)c1ccc(-c2ccc(OCCNC(=O)/C=C\c3cccnc3)c(Cl)c2)s1 [Compound 327]
2. CC(C)(O)c1ccc(-c2ccc(OCCNC(=O)/C=C/c3ccc(N)nc3)c(Cl)c2)s1 [Compound 319]
3. CC(O)c1ccc(-c2ccc(OCCNC(=O)/C=C/c3cccnc3)c(Cl)c2)s1 (stereo not shown) [Compound 301]

-- reply
1. 5.30 to 7.00
2. 5.30 to 7.00
3. 5.30 to 7.00

List reported pIC50 for each of these compounds:
1. CC(CCOc1cc(-c2ccc(C(=O)N3CCC(F)(F)CC3)cn2)cc(C(F)(F)F)c1)NC(=O)/C=C/c1ccc(N)nc1 (stereo not shown) [Compound 352]
2. Nc1ccc(/C=C/C(=O)NCCS(=O)(=O)c2ccc(-c3ccc(C(=O)N4CC(F)(F)C4)cc3)cc2Cl)cn1 [Compound 337]
3. CC(=O)c1ccc(-c2ccc(NCCNC(=O)/C=C/c3cccnc3)c(Cl)c2)s1 [Compound 322]
4. Nc1ccc(CNC(=O)/C=C\COc2ccc(-c3ccc(C(=O)N4CCC(F)(F)CC4)cn3)cc2C(F)(F)F)cn1 [Compound 354]
5. CC1(C)COCCN1C(=O)c1ccc(-c2ccc(OCCNC(=O)/C=C/c3ccc(N)nc3)c(Cl)c2)cc1 [Compound 335]
6. CC(=O)c1ccc(-c2ccc(OCCNC(=O)/C=C/c3cccnn3)c(Cl)c2)s1 [Compound 310]
7. Nc1ccc(/C=C/C(=O)NCCOc2ccc(-c3ccc(C(=O)N4CCNCC4)cc3)cc2Cl)cn1 [Compound 326]
8. [2H]C([2H])(CNC(=O)/C=C/c1ccc(N)nc1)Oc1ccc(-c2ccc(C(=O)N3CCOCC3)cc2)cc1Cl [Compound 342]

-- reply
["5.30 to 7.00", "< 5.00", "5.30 to 7.00", "< 5.00", "> 7.00", "< 5.00", "> 7.00", "> 7.00"]

List reported pIC50 for each of these compounds:
1. CC(=O)c1ccc(-c2ccc(Cl)c(OCCNC(=O)/C=C/c3cccnc3)c2)s1 [Compound 303]
2. Nc1ccc(/C=C/C(=O)NCCOc2ccc(-c3ccc(C(=O)N4CCOCC4)nc3)cc2Cl)cn1 [Compound 321]
3. C=C(C)c1ccc(-c2ccc(OCCNC(=O)/C=C/c3cccnc3)c(Cl)c2)s1 [Compound 315]

-- reply
5.30 to 7.00
> 7.00
5.30 to 7.00
